assay summary: In vivo pharmacokinetics in ICR mice
measurement context: mouse, plasma, PO, 10 mg/kg intragastric, read-out: Tmax
measured metric: Tmax (h)
Field: numeric (h). Do not append units.

| smiles text | Tmax (h) |
| --- | --- |
| Cc1cc2cc(n1)-c1cnn(C)c1OCCC[C@@H](C1CC1)CN1/C(=N/C2=O)Nc2cc(NCCCN3CCOCC3)ccc21 | 0.5 |
| Cc1cc2cc(n1)-c1cnn(C)c1OCCC[C@@H](C1CC1)CN1/C(=N/C2=O)Nc2cc(N[C@@H](C)CN(C)C)ccc21 | 4 |
| Cc1cc2cc(n1)-c1cnn(C)c1OCCC[C@@H](C1CC1)CN1/C(=N/C2=O)Nc2cc(NCCCN3CCCCC3)ccc21 | 6 |
| Cc1cc2cc(n1)-c1cnn(C)c1OCCC[C@@H](C1CC1)CN1/C(=N/C2=O)Nc2ccc(NCCN(C)C)cc21 | 6 |
| Cc1cc2cc(n1)-c1cnn(C)c1OCCC[C@@H](C1CC1)CN1/C(=N/C2=O)Nc2ccc(N[C@H]3C[C@H](N(C)C)C3)cc21 | 6 |

Now look at this entry.
Input: Requested field: Tmax. Item: "Cc1cc2cc(n1)-c1cnn(C)c1OCCC[C@@H](C1CC1)CN1/C(=N/C2=O)Nc2cc(NC3(C)COC3)ccc21"
Output: 0.5

###

test system: EGFR (d746-750 (d19)/T790M) (Homo sapiens (Human), UniProt P00533, DEL746-750/T790M)
Sequence (P00533 other isoform, or with tags, fused parts or gaps T790M/del 1-668/del 746-750 limits assumed): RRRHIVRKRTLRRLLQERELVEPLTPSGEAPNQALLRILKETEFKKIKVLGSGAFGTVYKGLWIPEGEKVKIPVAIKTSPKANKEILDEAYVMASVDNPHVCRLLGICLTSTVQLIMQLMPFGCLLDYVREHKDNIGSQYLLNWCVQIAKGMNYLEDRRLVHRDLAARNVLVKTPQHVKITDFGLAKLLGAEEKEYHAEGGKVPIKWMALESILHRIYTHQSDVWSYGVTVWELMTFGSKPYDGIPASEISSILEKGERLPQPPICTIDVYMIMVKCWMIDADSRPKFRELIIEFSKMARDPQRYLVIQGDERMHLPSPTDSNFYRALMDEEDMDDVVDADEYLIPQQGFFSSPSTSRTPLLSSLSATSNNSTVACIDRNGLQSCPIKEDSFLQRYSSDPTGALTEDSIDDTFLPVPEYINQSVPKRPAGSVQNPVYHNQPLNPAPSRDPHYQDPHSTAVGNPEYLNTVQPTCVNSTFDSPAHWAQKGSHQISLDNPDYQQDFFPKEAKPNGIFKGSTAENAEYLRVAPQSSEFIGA
assay summary: Inhibitory activity for EGFR (d746-750 (d19)/T790M) kinase
measurement context: ATP 5 μM
Method: 1.3 Screening for Inhibitory Activity for EGFR (d746-750 (d19)/T790M) Kinase A 50 ng/μL EGFR (d746-750/T790M, Carna) stock solution was diluted with a kinase buffer (50 mM HEPES, 10 mM MgCl2, 2 mM DTT, 1 mM EGTA, 0.01% Tween 20), and 6 μL of 1.67× working solution at 0.005 ng/μL (final concentration: 0.003 ng/μL) was added to each well. […]
The following compounds are listed with their measured IC50 values.
Field: numeric (nM). Do not append units.

| compound | measured metric | unit label | measured result |
| --- | --- | --- | --- |
| Cc1cc2cc(n1)-c1cnn(C)c1OCCC[C@@H](C1CC1)CN1/C(=N/C2=O)Nc2ccc(C=CCCN(C)C)cc21 | IC50 | nM | 0.016 |

Input: Requested field: IC50. Item: "Cc1cc2cc(n1)-c1cnn(C)c1OCCC[C@@H](C1CC1)CN1/C(=N/C2=O)Nc2ccc(N(C)C3CCN(C)CC3)cc21"
Output: 0.12

Input: Requested field: IC50. Item: "Cc1cc2cc(n1)-c1cnn(C)c1OCCC[C@@H](C1CC1)CN1/C(=N/C2=O)Nc2cc(NC3(C(F)(F)F)COC3)ccc21"
Output: 0.044

Input: Requested field: IC50. Item: Cc1cc2cc(n1)-c1cnn(C)c1OCCC[C@@H](C1CC1)CN1/C(=N/C2=O)Nc2cc(NC3CC(F)C3)ccc21 (stereo partly drawn)
Output: 0.75

Input: Requested field: IC50. Item: "Cc1cc2cc(n1)-c1cnn(C)c1OCCC[C@@H](C1CC1)CN1/C(=N/C2=O)Nc2cc(NCCN(C)C)ccc21"
Output: 0.0076

Input: Requested field: IC50. Item: "Cc1cc2cc(n1)-c1cnn(C)c1OCCC[C@@H](C1CC1)CN1/C(=N/C2=O)Nc2ccc(N[C@H]3C[C@H](N(C)C)C3)cc21"
Output: 0.13
